B1: TPD52L1 (parent)
chain: ISKKFGDMSYSIRHSISMPAMRNS

- Variants of: B1
- TEST_METHOD_NOTES: protein stability index of a GFP-peptide fusion (GPS, HEK-293T) (PSI 1-6); higher = more stable;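 further: lentivirally expressed fusions sorted by FACS into six bins by GFP to DsRed ratio, PSI derived from sequencing read proportions per bin multiplied by bin number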
- CONDITION_LABEL: c terminus: a fixed tail appended
Some variants, each annotated with its measured protein stability index.
METRIC_NAME: protein stability index

VARIANT_KEY	RESULT_NUMBER
F5L	1.78
M21S	2.46
S15R	2.24
G6S	2.24
D7A	2.15
M21H	2.46
S24E	2.15
A20Y	2.17
M21V	2.53
S24K	2.21
S17W	1.27
P19W	1.71
S11M	2.03
I16S	2.77
P19T	2.17
D7R	2.21
I16V	2.32
S24T	2.74
G6P	2.75
K3R	2.16
I16D	2.6
G6L	1.45
P19V	1.87
I1Q	2.88
K3L	2.83
I1E	2.9
S9C	1.88
R22K	2.75
I12D	3.07
S11V	2.49
S9K	2.37
S24W	1.44
H14F	2.49
A20I	2.67
K4P	2.48
I1A	2.58
Y10S	2.84
R22T	2.6
I12Y	2.37
A20W	2.13
I1G	2.65
I16N	2.61
R22F	2.22
S24P	2.33
R22P	2.34
S17V	2.12
